Test system: IGROV1 ovarian
Assay: NCI-60 one-dose screen, 48 h (100 = growth as untreated, 0 = no growth, -100 = all killed)
Conditions: 10 µM unless noted
Description: Growth inhibition of the IGROV1 human tumor cell line is measured as a screen for anti-cancer activity. Cells are grown in 96 well plates and exposed to the test compound for 48 hours. Compounds are tested at a single concentration, which is 10^-5 M for most compounds. The reported endpoint is percent growth (GI% or GIPRCNT), where numbers from 0 - 100% represent growth inhibition, and numbers from -100% - 0 represent cell death. For example, a value of 40 represents 60% growth inhibition. […]
About 83,000 compounds went through this panel and 20% of them were active in at least one assay; those are over-represented in the sample as a whole. The source made the active and inactive calls. How the source made its calls: active means growth percent below 10; inactive means the rest.
quantity-measured: growth

{"mol": "O=C(O)CCCN1C(=O)/C(=C/C(Cl)=C/c2ccccc2)SC1=S", "growth": "7.37% (active)"}
{"mol": "Cc1cccc(Cl)c1NC(=O)c1ccc2nc(NC(=O)NCCN(C)C)sc2c1", "growth": "109% (inactive)"}
{"mol": "Cc1ccccc1Cn1cnc2ccc(-c3cc(NC(=O)c4ccc(NC5CCN(C)CC5)cc4)n[nH]3)cc21", "growth": "26.5% (inactive)"}

Take each entry in turn and give its growth.
1. Cc1nc(N2CCOCC2)sc1S(N)(=O)=O
2. CCOc1nc(-c2ccccc2)cc2c(O)c(C(=O)NN)[nH]c(=O)c12
3. CC(=O)Nc1nc2ccc(NS(=O)(=O)c3cccc4c(N(C)C)cccc34)cc2[nH]1

Result:
99.4% (inactive)
55.2% (inactive)
51.5% (inactive)

Take each entry in turn and give its growth.
1. CC1=NN(c2nc(SCC(=O)Nc3nc4ccc(C)cc4s3)nc(-c3ccccc3)c2C#N)C(=O)C1
2. C#CCOc1cccc(Nc2ncnc3ccc(NC(=O)CCl)cc23)c1

Result:
1: 83.5% (inactive); 2: -57.2% (active)

Request: Would you mind telling me what growth value was observed for O=C1Nc2ccccc2/C1=C\c1nc(-c2ccccc2F)n2ccccc12 ?
Result: 2.99% (active)
